Entry source: ChEMBL document CHEMBL4229379

- System: Escherichia coli
- ASSAY_PROTOCOL: Antibacterial activity against extended-spectrum beta-lactamase harboring Escherichia coli 12-15 after 18 hrs by CLSI broth microdilution method
- Type: functional
- CONDITION_SUMMARY: 12-15, 18 h
Documented MIC across a set of compounds

- COMPOUND: "CC(C)NC(=N)c1ccc2cc(-c3ccc(-c4cc5ccc(C(=N)NC(C)C)cc5[nH]4)cc3)[nH]c2c1"
  ASSAY_METRIC: "MIC"
  TEST_VALUE: "2 mg/L"

// fetch Escherichia coli MIC for N=C(c1ccc2cc(-c3ccc(-c4cc5ccc(C(=N)N6CC=CC6)cc5[nH]4)cc3)[nH]c2c1)N1CC=CC1 8 mg/L

// fetch Escherichia coli MIC for CN(C)CCNC(=N)c1ccc2cc(-c3ccc(-c4cc5ccc(C(=N)NCCN(C)C)cc5[nH]4)cc3)[nH]c2c1 16 mg/L

// fetch Escherichia coli MIC for N=C(c1ccc2cc(-c3ccc(-c4cc5ccc(C(=N)N6CCOCC6)cc5[nH]4)cc3)[nH]c2c1)N1CCOCC1 4 mg/L

// fetch Escherichia coli MIC for CN(C)C(=N)c1ccc2cc(-c3ccc4ccc(-c5cc6ccc(C(=N)N(C)C)cc6[nH]5)cc4c3)[nH]c2c1 > 128 mg/L

// fetch Escherichia coli MIC for CN(C)CCCNC(=N)c1ccc2cc(-c3ccc(-c4cc5ccc(C(=N)NCCCN(C)C)cc5[nH]4)cc3)[nH]c2c1 8 mg/L

// fetch Escherichia coli MIC for CN(C)C(=N)c1ccc2cc(-c3ccc(-c4cc5ccc(C(=N)N(C)C)cc5[nH]4)cc3)[nH]c2c1 2 mg/L

// fetch Escherichia coli MIC for CCC(C)NC(=N)c1ccc2cc(-c3ccc(-c4cc5ccc(C(=N)NC(C)CC)cc5[nH]4)cc3)[nH]c2c1 (stereo unspecified) 4 mg/L

// fetch Escherichia coli MIC for CNC(=N)c1ccc2cc(-c3cncc(-c4cc5ccc(C(=N)NC)cc5[nH]4)c3)[nH]c2c1 > 64 mg/L

----------
- System: Pseudomonas aeruginosa
- ASSAY_PROTOCOL: Antibacterial activity against Pseudomonas aeruginosa ATCC 27853 after 18 hrs by CLSI broth microdilution method
- Format: functional
- CONDITION_SUMMARY: ATCC 27853, 18 h
Documented MIC across a set of compounds
The figure you give is taken to be in µg/mL; do not add the unit.

Some compounds with recorded MIC:
- COMPOUND: "C[C@H]1COc2c(N3CCN(C)CC3)c(F)cc3c(=O)c(C(=O)O)cn1c23.C[C@H]1COc2c(N3CCN(C)CC3)c(F)cc3c(=O)c(C(=O)O)cn1c23.O [LEVOFLOXACIN]"
  UNIT_TEXT: "µg/mL"
  MIC: 0.5
- COMPOUND: "CN(C)C(=N)c1ccc2cc(-c3cncc(-c4cc5ccc(C(=N)N(C)C)cc5[nH]4)c3)[nH]c2c1"
  UNIT_TEXT: "µg/mL"
  MIC: 16
- COMPOUND: "c1cc2cc(-c3ccc(-c4cc5ccc(C6=NCCCN6)cc5[nH]4)cc3)[nH]c2cc1C1=NCCCN1"
  UNIT_TEXT: "µg/mL"
  MIC: 4

I would be grateful if you could share the reported MIC for CNC(=N)c1ccc2cc(-c3ccc(-c4cc5ccc(C(=N)NC)cc5[nH]4)cc3)[nH]c2c1 . 16

----------
- System: Klebsiella aerogenes
- ASSAY_PROTOCOL: Antibacterial activity against Enterobacter aerogenes ATCC 13048 after 18 hrs by CLSI broth microdilution method
- Format: functional
- CONDITION_SUMMARY: ATCC 13048, 18 h
ASSAY_METRIC: MIC

- SMILES_REPRESENTATION: "CN(C)C(=N)c1ccc2cc(-c3ccc4cc(-c5cc6ccc(C(=N)N(C)C)cc6[nH]5)ccc4c3)[nH]c2c1"
  ASSAY_METRIC: "MIC"
  TEST_VALUE: "> 128 µg/mL"

I would be grateful if you could share the reported MIC for COCCNC(=N)c1ccc2cc(-c3cncc(-c4cc5ccc(C(=N)NCCOC)cc5[nH]4)c3)[nH]c2c1 . > 64 µg/mL

I would be grateful if you could share the reported MIC for CN(C)C(=N)c1ccc2cc(-c3cccc(-c4cc5ccc(C(=N)N(C)C)cc5[nH]4)c3)[nH]c2c1 . > 128 µg/mL

----------
- Tested on: Escherichia coli
- ASSAY_PROTOCOL: Antibacterial activity against extended-spectrum beta-lactamase deficient Escherichia coli 1515 after 18 hrs by CLSI broth microdilution method
- Type: functional
- CONDITION_SUMMARY: Escherichia coli, 1515, 18 h
Documented MIC across a set of molecules
The figure you give is taken to be in µg/mL; do not add the unit.

- MOLECULE: "CCC(C)NC(=N)c1ccc2cc(-c3ccc(-c4cc5ccc(C(=N)NC(C)CC)cc5[nH]4)cc3)[nH]c2c1 (stereo not drawn)"
  MIC [µg/mL]: 4

I would be grateful if you could share the reported MIC for CN(C)C(=N)c1ccc2cc(-c3ccc(-c4cc5ccc(C(=N)N(C)C)cc5[nH]4)nc3)[nH]c2c1 . 4

I would be grateful if you could share the reported MIC for CC(C)NC(=N)c1ccc2cc(-c3ccc(-c4cc5ccc(C(=N)NC(C)C)cc5[nH]4)cc3)[nH]c2c1 . 4

----------
Documented MIC across a set of compounds
- Test system: Enterococcus faecalis
- ASSAY_PROTOCOL: Antibacterial activity against vancomycin-sensitive Enterococcus faecalis ATCC 29212 after 18 hrs by CLSI broth microdilution method
- Type: functional
- CONDITION_SUMMARY: ATCC 29212, 18 h

Some compounds with recorded MIC:
- COMPOUND: "CNC(=N)c1ccc2cc(-c3cncc(-c4cc5ccc(C(=N)NC)cc5[nH]4)c3)[nH]c2c1"
  STUDY_SYSTEM: "Enterococcus faecalis"
  MIC: "> 64 µg/mL"
- COMPOUND: "CCC(C)NC(=N)c1ccc2cc(-c3cncc(-c4cc5ccc(C(=N)NC(C)CC)cc5[nH]4)c3)[nH]c2c1 (centres undefined)"
  STUDY_SYSTEM: "Enterococcus faecalis"
  MIC: "> 64 µg/mL"
- COMPOUND: "CC(C)NC(=N)c1ccc2cc(-c3cncc(-c4cc5ccc(C(=N)NC(C)C)cc5[nH]4)c3)[nH]c2c1"
  STUDY_SYSTEM: "Enterococcus faecalis"
  MIC: "> 64 µg/mL"

I would be grateful if you could share the reported MIC for COCCNC(=N)c1ccc2cc(-c3cncc(-c4cc5ccc(C(=N)NCCOC)cc5[nH]4)c3)[nH]c2c1 . > 64 µg/mL

----------
- Tested on: Escherichia coli
- ASSAY_PROTOCOL: Antibacterial activity against extended-spectrum beta-lactamase deficient Escherichia coli ATCC 25922 after 18 hrs by CLSI broth microdilution method
- Type: functional
- CONDITION_SUMMARY: ATCC 25922, 18 h
ASSAY_METRIC: MIC

Some compounds with recorded MIC:
- COMPOUND: "CN(C)C(=N)c1ccc2cc(-c3ccc4ccc(-c5cc6ccc(C(=N)N(C)C)cc6[nH]5)cc4c3)[nH]c2c1"
  TEST_VALUE: "> 128 µg/mL"
- COMPOUND: "CC(C)NC(=N)c1ccc2cc(-c3cncc(-c4cc5ccc(C(=N)NC(C)C)cc5[nH]4)c3)[nH]c2c1"
  TEST_VALUE: "> 64 µg/mL"
- COMPOUND: "CCC(C)NC(=N)c1ccc2cc(-c3cncc(-c4cc5ccc(C(=N)NC(C)CC)cc5[nH]4)c3)[nH]c2c1 (centres undefined)"
  TEST_VALUE: "> 64 µg/mL"
- COMPOUND: "COCCNC(=N)c1ccc2cc(-c3cncc(-c4cc5ccc(C(=N)NCCOC)cc5[nH]4)c3)[nH]c2c1"
  TEST_VALUE: "> 64 µg/mL"
- COMPOUND: "N=C(c1ccc2cc(-c3ccc(-c4cc5ccc(C(=N)N6CC=CC6)cc5[nH]4)cc3)[nH]c2c1)N1CC=CC1"
  TEST_VALUE: "8 µg/mL"
- COMPOUND: "N=C(c1ccc2cc(-c3ccc(-c4cc5ccc(C(=N)N6CCC6)cc5[nH]4)cc3)[nH]c2c1)N1CCC1"
  TEST_VALUE: "1 µg/mL"

// fetch Escherichia coli MIC for CN(C)C(=N)c1ccc2cc(-c3cccc(-c4cc5ccc(C(=N)N(C)C)cc5[nH]4)c3)[nH]c2c1 64 µg/mL

// fetch Escherichia coli MIC for CN(C)CCCNC(=N)c1ccc2cc(-c3ccc(-c4cc5ccc(C(=N)NCCCN(C)C)cc5[nH]4)cc3)[nH]c2c1 4 µg/mL

// fetch Escherichia coli MIC for N=C(c1ccc2cc(-c3ccc(-c4cc5ccc(C(=N)N6CC=CCC6)cc5[nH]4)cc3)[nH]c2c1)N1CC=CCC1 8 µg/mL

// fetch Escherichia coli MIC for CN(C)C(=N)c1ccc2cc(-c3ccc(-c4cc5ccc(C(=N)N(C)C)cc5[nH]4)nc3)[nH]c2c1 4 µg/mL

// fetch Escherichia coli MIC for CN(C)C(=N)c1ccc2cc(-c3cnc(-c4cc5ccc(C(=N)N(C)C)cc5[nH]4)s3)[nH]c2c1 2 µg/mL

// fetch Escherichia coli MIC for C[C@H]1COc2c(N3CCN(C)CC3)c(F)cc3c(=O)c(C(=O)O)cn1c23.C[C@H]1COc2c(N3CCN(C)CC3)c(F)cc3c(=O)c(C(=O)O)cn1c23.O ≤ 0.03 µg/mL

// fetch Escherichia coli MIC for N=C(c1ccc2cc(-c3ccc(-c4cc5ccc(C(=N)N6CCC(N7CCCC7)CC6)cc5[nH]4)cc3)[nH]c2c1)N1CCC(N2CCCC2)CC1 8 µg/mL

// fetch Escherichia coli MIC for CNC(=N)c1ccc2cc(-c3cncc(-c4cc5ccc(C(=N)NC)cc5[nH]4)c3)[nH]c2c1 > 64 µg/mL
